assay: in vivo; conditions: male, rat, in vivo, iv, 2 mg/kg
MEASUREMENT TYPE: half-life (h)
Value expressed in h; do not type the unit.

molecule=CN1[C@@H](CC(=O)c2ccccc2)CCC[C@H]1C[C@H](O)c1ccccc1 measured_result=1.68

Asked: Check the records and state half-life for CN1[C@H](CC(=O)c2ccccc2)CCC[C@H]1C[C@H](O)c1ccccc1 (single isomer, unassigned; epimer 2) [Epimer]
Given back: 1.26

* * *

Below: a set of entries, each annotated with reported half-life.
assay: in vivo; details: male, rat, in vivo, po, 20 mg/kg
Value expressed in h; do not type the unit.

compound="CN1[C@H](CC(=O)c2ccccc2)CCC[C@H]1C[C@H](O)c1ccccc1 (single isomer, unassigned; epimer 2) [Epimer]" measured_result=1.32

Proceed to the following item.
Asked: Check the records and state half-life for CN1[C@@H](CC(=O)c2ccccc2)CCC[C@H]1C[C@H](O)c1ccccc1 [Lobeline]
Given back: 1.97
